test system: serum samples from patients infected with group O HIV-1 retroviruses; assay: Immunoenzymatic test: Test No. 2 (immunoreactivity with diluted sera); assay type: binding, human; settings: serum NJEM at 1/100; solid phase peptide 2 μg/ml, cyclized
No end group written: not given here.
Entries are sorted into classes by ABSORBANCE (OD) as follows: band 1 (below 0.03), band 2 (0.03 to below 0.4), band 3 (0.4 or more)

Check out these entries, answers already filled in.
1) LNQQRLLNSWGCKGRLVCYTSV [PEPTIDE No. 14 (21B)] = band 2
2) ALETLLQNQQLLNSWGCRGRLVCYTSVRWNET [PEPTIDE No. 11 (18B)] = band 3
3) LLNLWGCKNRAICYTSVKWNKT (cysteine pairing not given here) [VAU 22 AA, reference compound] = band 1
4) RALETLLNQQRLLNSWGCKGRLVCYTSV [PEPTIDE No. 15 (22B)] = band 3
5) RLLALETFIEENELLNLWGCKNRAICYTSVKWNKT (cysteine pairing not given here) [VAU 35 AA, reference compound] = band 2
6) LLNSWGCKGRLVCYTS [PEPTIDE No. 10 (14B)] = band 2
7) RLNSWGCKGRLVCYTSV [PEPTIDE No. 16 (23B)] = band 1

# evaluate next
Inquiry: Which band does RLQALETLIQNQQRLNLWGCKGKLICYTSVKWNTS (cysteine pairing not given here) [MVP 5180, reference compound] fall in?
Reply text: band 2
